Source listed as patent US20110046107A1.

# Tested on: Escherichia coli
# assay method text: In vitro antibacterial activity, agar dilution method (clinical isolates)
# Type: cell-based
# run parameters: clinically isolated strains, Gram-negative, read-out: MIC90 E. coli
I'd appreciate it if you could supply MIC90 values for the items below.
Numbers only; they are read as µg/mL.

Exam item: Identify measured MIC90 associated with C[C@@H](O)[C@H]1C(=O)N2C(C(=O)O)=C(S[C@@H]3CN[C@H](C(=O)Nc4cccc(C(=O)O)c4)C3)[C@H](C)[C@H]12 [ertapenem, Ertapenem, reference compound]
Marked response: 0.25

Exam item: Identify measured MIC90 associated with C[C@@H](O)[C@H]1C(=O)N2C(C(=O)O)=C(SC3CNCN(S(N)(=O)=O)C3)[C@H](C)[C@H]12 (stereo partly shown)
Marked response: 0.032

Exam item: Identify measured MIC90 associated with CCCCN(CCCC)S(=O)(=O)N1CC(SC2=C(C(=O)O)N3C(=O)[C@H]([C@@H](C)O)[C@H]3[C@H]2C)C1
Marked response: 0.016

Exam item: Identify measured MIC90 associated with C[C@@H](O)[C@H]1C(=O)N2C(C(=O)O)=C(SC3CN(S(N)(=O)=O)C3)[C@H](C)[C@H]12
Marked response: 0.008

Exam item: Identify measured MIC90 associated with C[C@@H](O)[C@H]1C(=O)N2C(C(=O)O)=C(SC3CN(S(=O)(=O)N(C)C)C3)[C@H](C)[C@H]12
Marked response: 0.016

Exam item: Identify measured MIC90 associated with C[C@@H](O)[C@H]1C(=O)N2C(C(=O)[O-])=C(SC3CN(S(=O)(=O)NCC(O)CN)C3)[C@H](C)[C@H]12.[Na+] (stereo partly shown) [sodium salt of compound 9]
Marked response: 0.016

Exam item: Identify measured MIC90 associated with C[C@@H](O)[C@H]1C(=O)N2C(C(=O)O)=C(S[C@@H]3CN[C@H](C(=O)N(C)C)C3)[C@H](C)[C@H]12 [meropenem, Meropenem, reference compound]
Marked response: 0.032
